Molecular target: SARM1 SAM-TIR (Homo sapiens, UniProt Q6SZW1);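 further: inhibition of SARM1 SAM-TIR NADase activity, i.e. NAD+ cleavage, using lysate of NRK1-HEK293T cells overexpressing the SAM-TIR fragment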
Construct: a fragment of the SARM1 molecule encompassing the SAM and TIR domains; made in house; host or cells: NRK1-HEK293T cells, transiently transfected; the cleared, unpurified lysate was used as the enzyme
Sequence (Q6SZW1 409-724 limits assumed): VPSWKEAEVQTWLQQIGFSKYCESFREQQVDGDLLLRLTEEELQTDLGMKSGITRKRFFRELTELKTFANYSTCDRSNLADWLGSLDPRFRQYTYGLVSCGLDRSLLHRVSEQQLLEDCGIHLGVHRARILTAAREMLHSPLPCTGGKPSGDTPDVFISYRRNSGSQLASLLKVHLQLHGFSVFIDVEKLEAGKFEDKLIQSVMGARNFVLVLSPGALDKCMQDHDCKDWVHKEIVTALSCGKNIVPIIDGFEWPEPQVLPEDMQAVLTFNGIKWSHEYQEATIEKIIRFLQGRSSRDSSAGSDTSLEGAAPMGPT
Assay: biochemical
Details: SAM-TIR lysate 5 μg/mL, 2 h pre-incubation, 5 μM NAD+, RapidFire MS of NAD+ and ADPR; read-out: SARM1 IC50
pIC50: −log10 of the molar value.
Recorded pIC50 by entry

N#Cc1c(Nc2ccccc2C2CC2)s[nH]c1=O [Example 111] = 5.30 to 6.00
Cn1sc(Nc2c(Cl)cccc2Cl)c(C#N)c1=O [Example 46] = > 6.00

Turning to the following compound.
Ask | Recorded pIC50 of COc1ccc(Cn2sc(Nc3ccccc3)c(C#N)c2=O)cc1 [Example 88] , please.
Reply | > 6.00
